Molecular target: EGFR wildtype (WT) (Homo sapiens, UniProt P00533)
Sequence (P00533 25-1210): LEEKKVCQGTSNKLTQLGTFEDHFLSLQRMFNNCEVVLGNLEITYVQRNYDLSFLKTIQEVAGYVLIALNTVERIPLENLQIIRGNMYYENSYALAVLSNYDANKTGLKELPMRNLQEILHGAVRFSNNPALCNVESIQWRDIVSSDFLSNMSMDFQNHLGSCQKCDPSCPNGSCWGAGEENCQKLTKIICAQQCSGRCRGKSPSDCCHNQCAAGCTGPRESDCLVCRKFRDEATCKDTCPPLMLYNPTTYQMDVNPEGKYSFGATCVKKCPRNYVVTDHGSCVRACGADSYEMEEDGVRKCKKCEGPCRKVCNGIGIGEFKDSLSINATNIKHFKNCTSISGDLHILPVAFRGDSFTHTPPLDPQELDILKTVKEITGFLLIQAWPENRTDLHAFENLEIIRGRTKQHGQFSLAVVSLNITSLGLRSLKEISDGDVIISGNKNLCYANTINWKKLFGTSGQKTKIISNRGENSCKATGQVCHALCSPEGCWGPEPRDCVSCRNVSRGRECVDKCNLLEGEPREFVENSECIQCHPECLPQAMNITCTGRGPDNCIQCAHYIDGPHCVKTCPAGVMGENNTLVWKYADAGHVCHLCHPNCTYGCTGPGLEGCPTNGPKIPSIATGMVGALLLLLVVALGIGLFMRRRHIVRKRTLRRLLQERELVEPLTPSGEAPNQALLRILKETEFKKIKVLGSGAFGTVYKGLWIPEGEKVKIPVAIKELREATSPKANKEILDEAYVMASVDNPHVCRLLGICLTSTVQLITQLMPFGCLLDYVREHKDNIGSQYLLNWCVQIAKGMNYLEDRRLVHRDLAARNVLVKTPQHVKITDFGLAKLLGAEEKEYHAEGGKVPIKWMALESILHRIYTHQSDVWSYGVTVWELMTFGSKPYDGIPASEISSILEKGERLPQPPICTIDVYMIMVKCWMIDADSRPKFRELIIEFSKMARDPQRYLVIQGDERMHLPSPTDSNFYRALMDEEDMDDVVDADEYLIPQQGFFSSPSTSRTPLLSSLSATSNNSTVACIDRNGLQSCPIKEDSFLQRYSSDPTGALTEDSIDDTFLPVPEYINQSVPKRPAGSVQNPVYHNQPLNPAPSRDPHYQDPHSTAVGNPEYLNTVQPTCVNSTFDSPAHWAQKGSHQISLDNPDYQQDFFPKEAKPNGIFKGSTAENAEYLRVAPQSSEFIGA
Test: Biochemical EGFR kinase assay (Lance Ultra TR-FRET), wildtype
Conditions: Km ATP; read-out: IC50 WT (nM) Km ATP
READOUT NAME: IC50 (nM)
Your answer is read as nM, so omit the unit and give the number.

## Input Look up and report measured IC50 for this entry: CS(=O)(=O)c1ccccc1Nc1nccc(Nc2cc(N[C@H]3CC[C@@](C)(O)CC3)c(-c3ccn(C(F)F)n3)cn2)n1
## Output 1610

## Input Look up and report measured IC50 for this entry: O=S(=O)(C1CC1)n1cc(-c2nccc(Nc3cc(N[C@H]4CC[C@@H](CCO)CC4)c(-c4ccn(C(F)F)n4)cn3)n2)cn1
## Output 5.7

## Input Look up and report measured IC50 for this entry: CN(C)C[C@H]1C[C@H](CNc2cc(Nc3ccnc(-c4cnn(S(=O)(=O)C5CC5)c4)n3)ncc2-c2ccn(C(F)F)n2)C1
## Output 13.1

## Input Look up and report measured IC50 for this entry: C[C@]1(O)CC[C@@H](Nc2cc(Nc3ccnc(-c4cnn(CC(F)(F)C(F)F)c4)n3)ncc2-c2ccn(C(F)F)n2)CC1
## Output 1520

## Input Look up and report measured IC50 for this entry: Cc1nn(CC(F)F)c(C)c1-c1nccc(Nc2cc(N[C@H]3CC[C@@](C)(O)CC3)c(-c3ccn(C(F)F)n3)cn2)n1
## Output 74.8

## Input Look up and report measured IC50 for this entry: O=S(=O)(C1CC1)n1cc(-c2nccc(Nc3cc(N[C@H]4CC[C@@H](NCC(F)F)CC4)c(-c4ccn(C(F)F)n4)cn3)n2)cn1
## Output 6.9
